system: Escherichia coli TOP10; assay: shrunken log2 fold change of peptide-encoding DNA abundance (4.5 h post-induction vs induction); higher = less antimicrobial activity (less host growth inhibition); conditions: time post-induction: 4.5 h; library: site-saturation at positions 5, 18, 19, 20;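 note: peptides expressed intracellularly from a pBAD plasmid library in pooled LB shake-flask culture, induced with 0.3% L-arabinose, DNA abundance read by NGS, three biological replicates, DESeq2 with apeglm shrinkage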
MEASURED ATTRIBUTE: shrunken log2 fold change
Write no unit; give the number alone.

RRIRYRPPRLPRPRPRPSAGPRP | -0.165

Hello, I am looking for reported shrunken log2 fold change with Escherichia coli TOP10 for RRIRSRPPRLPRPRPRPEEQPRP . Could you help?
0.64

Quick one: RRIRMRPPRLPRPRPRPHPCPRP
0.046

Quick one: RRIRERPPRLPRPRPRPFLGPRP
-0.284

Quick one: RRIRYRPPRLPRPRPRPFMPPRP
-0.323

Quick one: RRIRTRPPRLPRPRPRPYRFPRP
-0.0191

Quick one: RRIRKRPPRLPRPRPRPVFWPRP
0.666

Quick one: RRIRYRPPRLPRPRPRPMPDPRP
-0.204

Quick one: RRIRARPPRLPRPRPRPTSCPRP
-0.15

Quick one: RRIRRRPPRLPRPRPRPCTAPRP
0.866

Quick one: RRIRHRPPRLPRPRPRPAASPRP
0.144

Quick one: RRIRRRPPRLPRPRPRPNRSPRP
0.339

Quick one: RRIRIRPPRLPRPRPRPTGNPRP
-0.626

Quick one: RRIRHRPPRLPRPRPRPWKGPRP
-0.0165

Quick one: RRIRSRPPRLPRPRPRPVWAPRP
0.67

Quick one: RRIRYRPPRLPRPRPRPENRPRP
0.0112

Quick one: RRIRSRPPRLPRPRPRPYYKPRP
-0.892

Quick one: RRIRTRPPRLPRPRPRPWEMPRP
-0.0783

Quick one: RRIRFRPPRLPRPRPRPTWMPRP
0.611

Quick one: RRIRTRPPRLPRPRPRPQYYPRP
-0.266

Quick one: RRIRSRPPRLPRPRPRPENRPRP
-0.114

Quick one: RRIRDRPPRLPRPRPRPHMSPRP
-0.00968

Quick one: RRIRRRPPRLPRPRPRPEVRPRP
0.176

Quick one: RRIRERPPRLPRPRPRPEISPRP
-0.407

Quick one: RRIRDRPPRLPRPRPRPSVHPRP
-0.258

Quick one: RRIRGRPPRLPRPRPRPLKPPRP
0.609

Quick one: RRIRKRPPRLPRPRPRPWCVPRP
-0.00029
